Every entry's value here was drawn from PubChem BioAssay (NCI).

- Tested on: SK-MEL-2 melanoma
- TEST: NCI-60 one-dose screen, 48 h (100 = growth as untreated, 0 = no growth, -100 = all killed)
- CONDITIONS_USED: 10 µM unless noted
- Protocol: Growth inhibition of the SK-MEL-2 human tumor cell line is measured as a screen for anti-cancer activity. Cells are grown in 96 well plates and exposed to the test compound for 48 hours. Compounds are tested at a single concentration, which is 10^-5 M for most compounds. The reported endpoint is percent growth (GI% or GIPRCNT), where numbers from 0 - 100% represent growth inhibition, and numbers from -100% - 0 represent cell death. For example, a value of 40 represents 60% growth inhibition. […]
About 83,000 compounds went through this panel and 20% of them were active in at least one assay; those are over-represented in the sample as a whole.
ATTRIBUTE_MEASURED: growth (%)
Write the value in % as a bare number.

Some compounds with recorded growth:
C[C@@H]1N=C(c2ccc(Cl)cc2Cl)Nc2nc3ccccn3c2C1=O : 38.2
O=C(Oc1ccccc1)c1cc(O)c(O)c(O)c1 : 125
CC(=O)CC(=O)c1ccccc1.[Cu+2] : 107
COc1ccc(S(=O)(=O)NC2c3ccccc3CC2O)cc1OC (stereo not given) : 104
Cn1nc(-c2ccc(Cl)cc2)nc2c(=O)n(C)c(=O)nc1-2 : -44.6
CC(Cc1cccc2ccccc12)C(N)=O (stereo not given) : 105
CN(Cc1ccccc1)c1nc(Cl)c(C2CC(c3ccc(Cl)cc3)=NN2c2cc(Cl)cc(Cl)c2)s1 (stereo not given) : 104
COc1cc(/C=N/NC(=O)c2ccc3nc(-c4ccc(Cl)cc4)[nH]c3c2)cc(OC)c1OC : 83.6

Given item "N#C/C(Sc1nc2sc3c(c2c(=O)n1Cc1ccccc1)CCCC3)=C1/SC=C(c2ccc(Cl)cc2)N1c1ccccc1" , the value recorded as its growth is 106

// growth value for "COC(=O)c1cc(-c2cc(OC)c(OC)c(OC)c2)[nH]c1N/N=C/c1c(Cl)cccc1Cl" : -21.2

---

- System: NCI-H23 lung
- TEST: NCI-60 one-dose screen, 48 h
- CONDITIONS_USED: 10 µM unless noted
About 83,000 compounds went through this panel and 20% of them were active in at least one assay; those are over-represented in the sample as a whole. The source made the active and inactive calls. The calls were made as follows: active = growth percent below 10; inactive = the rest.
Please state which outcome applies, choosing from active, inactive

CCN1C(=O)N(CC)C2C1NC(=S)N2/N=C/C=C/c1cccs1 (stereo not given) : inactive
CC(=O)c1c(/C=C/c2ccc(C)cc2)c2ccccc2[nH]c1=O : inactive
Cc1[nH]c(C(=O)Nc2ccccc2OC2CCNC2)c(Cl)c1Cl (stereo not given) : inactive
COC(=O)c1c(C(=O)OC)c2ccc3c4ncccc4ccc3n2c1C(=O)c1ccc(C)cc1 : inactive
CC/C(=C(/c1ccc(Cl)cc1)c1ccc(OCCN2CCCCCC2)cc1)c1ccccc1 : inactive

Enquiry: What is the recorded call for this compound in the test? "C=C(C)[C@@H]1CC[C@]2(C(=O)NC(C)=O)CC[C@]3(C)[C@H](CC[C@@H]4[C@@]5(C)CCCNC(C)(C)[C@@H]5CC[C@]43C)[C@@H]12"
Return: inactive

---

- Tested on: HT29 colon
- TEST: NCI-60 one-dose screen, 48 h
- CONDITIONS_USED: 10 µM unless noted
Compounds without any hit were thinned out: in the full panel of roughly 83,000, 20% have a hit. Activity calls are given as the source filed them. The calls were made as follows: active = growth percent below 10; inactive = the rest.
Outcome field: choose from Yes (active), No (inactive)

Please review the following examples before continuing.
O=C(Nc1ncc(Cc2ccc(Cl)cc2)s1)C1=NCCCCN1 : No
COc1cccc(-c2cc(-c3ccc(Nc4nc(Nc5ccc(Cl)cc5)nc(Nc5ccc(Cl)cc5)n4)cc3)nc(N)c2C#N)c1 : No
COC(=O)[C@H]1Cc2c([nH]c3ccccc23)[C@H](c2ccc3c(c2)OCO3)N1 : No

Enquiry: Which outcome was entered for the molecule CC1OC(C(=O)N2CCN(CCO)CC2)CC1COC1CCCCC1 (centres undefined) in this test?
Return: No

Enquiry: Per the assay record, what outcome was assigned to CCOC(=O)CC1C(CNC(=O)NC)OC(n2cnc3c(NC(=O)Nc4ccccc4)ncnc32)C1O[Si](C)(C)C(C)(C)C (centres undefined) ?
Return: No

Enquiry: Assay outcome for "COc1ccc(C2=C/C(=C\c3ccccc3O)C(=O)N2Cc2ccccc2)cc1" : what was it?
Return: No

Enquiry: Per the records of this test, what outcome belongs to "CCCCCCCCOC(=O)c1c(C)[nH]c(/C=C2\N=C(c3ccc[nH]3)C=C2OC)c1C" ?
Return: Yes

Enquiry: Write down the call the test reported for this molecule. Item: CN1CC(c2ccccc2)C(C(=O)c2ccc(Br)cc2)C12C(=O)Nc1ccccc12 (centres undefined)
Return: No

Enquiry: Per the records of this test, what outcome belongs to "CCOC(=O)c1c(C)c2c(n1Cc1ccccc1)CSc1cc(C#N)c(=O)[nH]c1-2" ?
Return: No

---

- Tested on: RPMI-8226 leukemia
- TEST: NCI-60 one-dose screen, 48 h
- CONDITIONS_USED: 10 µM unless noted
The panel holds about 83,000 compounds, 20% with a hit somewhere; the sample as a whole holds those more often. Active and inactive are the calls of the source. The calls were made as follows: active = growth percent below 10; inactive = the rest.
Outcomes you can answer with include only these: yes (1) for active, no (0) for inactive

Some solved cases for reference:
CCCCCCCCOC(=O)c1c(C)[nH]c(/C=C2\N=C(c3ccc[nH]3)C=C2OC)c1C : yes (1)
COc1ccc(CNc2c3ccccc3nc3ccccc23)cc1OC : yes (1)
O=C1OCC2=C1C(c1cccc(F)c1)c1cc3c(cc1N2CCO)CCC3 (stereo unspecified) : no (0)

Enquiry: How was "O=C1C(c2c(O)[nH]c3ncccc23)=Nc2ccccc21" classified in this test?
Return: no (0)

Enquiry: Dear colleague, could you share the recorded outcome for "CCCNNC(=O)c1ccc(CNC(=O)/C=C/c2ccccc2)cc1" when you have a moment?
Return: no (0)

Enquiry: Each compound tested received a call. Report the one for CCOC(=O)CC1CSC(N/N=C/c2ccc(O)cc2)=N1 (stereo unspecified) .
Return: no (0)

---

- Tested on: SNB-19 CNS
- TEST: NCI-60 one-dose screen, 48 h
- CONDITIONS_USED: 10 µM unless noted
- Method: Growth inhibition of the SNB-19 human tumor cell line is measured as a screen for anti-cancer activity. Cells are grown in 96 well plates and exposed to the test compound for 48 hours. Compounds are tested at a single concentration, which is 10^-5 M for most compounds. The reported endpoint is percent growth (GI% or GIPRCNT), where numbers from 0 - 100% represent growth inhibition, and numbers from -100% - 0 represent cell death. For example, a value of 40 represents 60% growth inhibition. […]
This is part of a sample that, as a whole, favours compounds with a hit. Of some 83,000 tested, about 20% had one in any assay. Calls of active or inactive are those of the source. The calls were made as follows: active = growth percent below 10; inactive = the rest.
Form entry, call: pick from 1 for active, 0 for inactive

Look over these answered cases.
C(CCCSC1=NCCN1)CCSC1=NCCN1 : 0
Cc1ccc(S(=O)(=O)N(CCC(=O)O)c2ccccc2)cc1 : 0
Cc1cc(C(=O)Nc2cc(Nc3ncccc3-c3ncnc4nc[nH]c34)ccc2F)cc(C(C)(C)C#N)c1 : 0
Nc1ncnc2c1N=C(c1ccc([N+](=O)[O-])cc1)CC(c1ccc3c(c1)OCO3)N2 (centres undefined) : 0
CC(=O)Oc1ccccc1C(=O)N(Cc1ccc2c(Cl)cc(Cl)c(O)c2n1)c1ccccc1 : 0
O=C1CCc2c(sc3[nH]c(=S)n(-c4cc(C(F)(F)F)cc(C(F)(F)F)c4)c(=O)c23)C1 : 0

We now examine a further molecule.
Enquiry: Query: recorded result category for "CCOc1ccccc1NC(=O)CCC(=O)OC" in this test
Return: 0

---

- Test system: NCI-H23 lung
- TEST: NCI-60 one-dose screen, 48 h (100 = growth as untreated, 0 = no growth, -100 = all killed)
- CONDITIONS_USED: 10 µM unless noted
The panel holds about 83,000 compounds, 20% with a hit somewhere; the sample as a whole holds those more often.
Measured growth values are reported for all entries that follow.
State the answer as a number, implicitly in %.

Before answering, review these 2 worked examples.
Cc1ccc2c(c1)CC(O)CC1C(=O)N(CCO)CC(=O)N21 (stereo not given) : 99.3
Cn1cc(-c2nc(-c3c[nH]c4c(Cl)nccc34)cs2)c2ccccc21 : 98.6

The reported growth of the compound "CN(C)c1ccc(/C=N/NC(=O)CSc2nc3sc4c(c3c(=O)n2-c2ccccc2)CCCCC4)cc1" was 29.7

Just so you know, measured growth for "Cc1nc2ccccc2c(/C=C/c2ccc(Br)cc2)c1C(=O)/C=C/c1ccccc1" came out at 8.31

growth in this record for Cc1ccc(C2=Nc3c(N)nc(N)nc3NC(c3cccc(Nc4ccnc5cc(C(F)(F)F)ccc45)c3)C2)cc1 (stereo not given) : 39.4

The reported growth of the compound COC(CCP(=O)(c1ccccc1)c1ccccc1)(C(=O)c1ccccc1)c1ccccc1 (stereo not given) was 77.3

Reported growth of "O=c1ccc2nc(-c3ccccc3)nn(-c3ccccn3)c-2c1" : 90.8

"Cc1nc2c(c(-c3ccccc3)n1)Cc1c(ccc3ccccc13)O2" has a reported growth of 97.8

For reference, reported growth for "CN(C)c1ccc(Cc2cc(-c3ccccc3)nn(C/C(=N/O)c3ccccc3)c2=O)cc1" stands at 57.4

Entry "CCOc1cc(\C=N/N=C(N)/C(N)=N\N=C/c2ccc(O)c(OCC)c2)ccc1O" , growth reported as 97.7
